Field: growth. Provide a value for each of the compounds that follow.
- Test system: EKVX NSCLC
- test: NCI-60 one-dose screen, 48 h (100 = growth as untreated, 0 = no growth, -100 = all killed)
- studyConditions: 10 µM unless noted
This is part of a sample that, as a whole, favours compounds with a hit. Of some 83,000 tested, about 20% had one in any assay.
A number alone suffices; assume %.

Query: Could you tell me which growth is on file for C=C1CC[C@@H]2[C@](C)(CO)[C@H](O)CC[C@@]2(C)[C@@H]1C/C(O)=C1\CCOC1=O ?
Result: 102

Query: Could you tell me which growth is on file for COC(=O)/C=C/c1c(C2(C)NC(=O)c3ccccc3N2)c(=O)oc2ccc(Cl)cc12 (centres undefined) ?
Result: 88.3

Query: Could you tell me which growth is on file for CCO/C=N/C1=C(C#N)C(c2ccc(F)cc2)c2sc3c(C)cccc3c2O1 (centres undefined) ?
Result: 44.6

Query: Could you tell me which growth is on file for C=C(C=O)[C@@H]1CC[C@]2(C)[C@H](C(=O)C=C3[C@H]4C[C@](C)(C(=O)OC)CC[C@]4(C)CC[C@]32C)[C@@]1(C)CCC#N ?
Result: 47.7

Query: Could you tell me which growth is on file for CCC(NC(c1cc2cccc3ccc4cccc1c4c32)c1nnnn1C(C)(C)C)C1CCCCC1 (centres undefined) ?
Result: 92.1

Query: Could you tell me which growth is on file for Nc1nc(-c2cccc([N+](=O)[O-])c2)c(N=Nc2cccc([N+](=O)[O-])c2)s1 ?
Result: 78.1

Query: Could you tell me which growth is on file for Cn1cc(-c2nnc(N)nc2-c2c[nH]c3ccc(F)cc23)c2cc(F)ccc21 ?
Result: 89.1

Query: Could you tell me which growth is on file for O=c1[nH]c(Sc2sc3ccc(Cl)cc3c2CBr)nc(=S)[nH]1 ?
Result: 40.2

Query: Could you tell me which growth is on file for CC(Nc1c(C#N)cnc2ccc(-c3cnc(N)nc3)cc12)c1ccccc1 (centres undefined) ?
Result: 0.82

Query: Could you tell me which growth is on file for O=C1/C(=C/C=C/c2ccco2)SC(=S)N1c1ccccc1 ?
Result: 81.2

Query: Could you tell me which growth is on file for CCN1CCN(Cc2cn(-c3ccc(S(N)(=O)=O)cc3)nn2)CC1 ?
Result: 103

Query: Could you tell me which growth is on file for COc1ccc(N2CCN(C3=C(Cl)C(=O)C(C)=C(C)C3=O)CC2)cc1 ?
Result: 116

Query: Could you tell me which growth is on file for COC(=O)c1[nH]nc2c1C1(C(=O)c3cccc4cccc1c34)C(C#N)=C(N)O2 (centres undefined) ?
Result: 89.9

Query: Could you tell me which growth is on file for CCOC(=O)c1c(Nc2ccccc2)nn2c(-c3ccccc3)ccnc12 ?
Result: 95.4

Query: Could you tell me which growth is on file for Cc1cc(C(NC(=O)CCCCCNc2cccc3c2C(=O)N(C2CCC(=O)NC2=O)C3=O)c2ccc3c(c2)OC(F)(F)O3)c(O)c2ncccc12 (centres undefined) ?
Result: 71.3

Query: Could you tell me which growth is on file for COc1ccc(/C=N/NC2=NC3C(S2)N(C)C(=O)N3C)cc1 (centres undefined) ?
Result: 38.5

Query: Could you tell me which growth is on file for CCc1cccc2c3c(sc12)C(c1ccc(OC)cc1)C(C#N)=C(/N=C/c1ccc(Cl)cc1)O3 (centres undefined) ?
Result: 47.6

Query: Could you tell me which growth is on file for CC(O)c1cc2ccccc2c(=O)o1 (centres undefined) ?
Result: 102

Query: Could you tell me which growth is on file for C=CCn1c(SCC(=O)Nc2ccc(C(=O)/C=C/c3ccc(C)cc3)cc2)nnc1-c1c[nH]c2ccccc12 ?
Result: 61.9

###

- Test system: TK-10 renal
- test: NCI-60 one-dose screen, 48 h (100 = growth as untreated, 0 = no growth, -100 = all killed)
- studyConditions: 10 µM unless noted
- Experimental: Growth inhibition of the TK-10 human tumor cell line is measured as a screen for anti-cancer activity. Cells are grown in 96 well plates and exposed to the test compound for 48 hours. Compounds are tested at a single concentration, which is 10^-5 M for most compounds. The reported endpoint is percent growth (GI% or GIPRCNT), where numbers from 0 - 100% represent growth inhibition, and numbers from -100% - 0 represent cell death. For example, a value of 40 represents 60% growth inhibition. […]
The panel holds about 83,000 compounds, 20% with a hit somewhere; the sample as a whole holds those more often.
Field: growth. Provide a value for each of the molecules that follow.
A number alone suffices; assume %.

Query: Could you tell me which growth is on file for COc1ccccc1N1CCN(C2=CC(=O)C(C)=C(C)C2=O)CC1 ?
Result: 116

Query: Could you tell me which growth is on file for COc1ccccc1-n1cc(C#N)c(N)c1C(=O)c1ccc(Br)cc1 ?
Result: 111

Query: Could you tell me which growth is on file for COc1cc(Cn2cc3c(c2)-c2onc(CN4CCOCC4)c2CC3)cc(OC)c1OC ?
Result: 107

Query: Could you tell me which growth is on file for O=S(=O)(Oc1ccc(-c2nnc(Nc3ccccc3)s2)cc1)C(F)(F)C(F)(F)C(F)(F)C(F)(F)C(F)(F)C(F)(F)F ?
Result: 109

Query: Could you tell me which growth is on file for CNC(=O)c1cc(-n2ccc3cc(NC(=O)Nc4ccc(N5CCOCC5)c(C(F)(F)F)c4)ccc32)ccn1 ?
Result: 61.3

Query: Could you tell me which growth is on file for O=C(CN1CCN(c2cc(=O)n(-c3ccccc3)c3ccccc23)CC1)Nc1cccc(C(F)(F)F)c1 ?
Result: 74.4

Query: Could you tell me which growth is on file for CCCCCc1ccc(S(=O)(=O)Nc2cc(-c3csc(NC(=O)CN4CCN(C)CC4)n3)ccc2N2CCN(C)CC2)cc1 ?
Result: 134

Query: Could you tell me which growth is on file for C=CCn1c(SCC(=O)Nc2ccc(C(=O)/C=C/c3cc(OC)c(OC)c(OC)c3)cc2)nnc1-c1c[nH]c2ccccc12 ?
Result: 144

###

- System: SF-295 CNS
- test: NCI-60 one-dose screen, 48 h (100 = growth as untreated, 0 = no growth, -100 = all killed)
- studyConditions: 10 µM unless noted
- Description: Cells are grown in 96 well plates and exposed to the test compound for 48 hours. Compounds are tested at a single concentration, which is 10^-5 M for most compounds. The reported endpoint is percent growth (GI% or GIPRCNT), where numbers from 0 - 100% represent growth inhibition, and numbers from -100% - 0 represent cell death. For example, a value of 40 represents 60% growth inhibition. A value of 0 means no net growth occurred over the course of the experiment. […]
About 83,000 compounds went through this panel and 20% of them were active in at least one assay; those are over-represented in the sample as a whole.
Kindly return Condition met if reported growth is no lower than 90%; return Condition not met if it is lower.

Query: Could you please find out whether O=C1[C@@H]2Cc3c([nH]c4ccccc34)[C@H](c3c(Cl)cccc3Cl)N2C(=O)CN1C1CCN(CC2CCCCC2)CC1 has growth that meets 90% or exceeds it?
Result: Condition met

Query: Could you please find out whether NC(=O)c1c(NC(=O)c2ccc(F)cc2F)sc2c1CCC(=O)C2 has growth that meets 90% or exceeds it?
Result: Condition met

Query: Could you please find out whether COc1ccc2c(c1)c(CC(=O)[Se]CC#N)c(C)n2C(=O)c1ccc(Cl)cc1 has growth that meets 90% or exceeds it?
Result: Condition not met

Query: Could you please find out whether O=C(NNc1nc2cc(F)ccc2n2cccc12)c1ccncn1 has growth that meets 90% or exceeds it?
Result: Condition not met

###

- Tested on: SNB-19 CNS
- test: NCI-60 one-dose screen, 48 h
- studyConditions: 10 µM unless noted
- Method: Growth inhibition of the SNB-19 human tumor cell line is measured as a screen for anti-cancer activity. Cells are grown in 96 well plates and exposed to the test compound for 48 hours. Compounds are tested at a single concentration, which is 10^-5 M for most compounds. The reported endpoint is percent growth (GI% or GIPRCNT), where numbers from 0 - 100% represent growth inhibition, and numbers from -100% - 0 represent cell death. For example, a value of 40 represents 60% growth inhibition. […]
About 83,000 compounds went through this panel and 20% of them were active in at least one assay; those are over-represented in the sample as a whole. Active and inactive are the calls of the source. How the source made its calls: active means growth percent below 10; inactive means the rest.
Answer with one of the outcomes active, inactive

Query: What classification did O=c1c2ccccc2nc(COc2ccccc2)n1NS(=O)(=O)c1ccc(Cl)cc1 end up with in this test?
Result: inactive

Query: What classification did Cn1ccnc1C(=O)/C=C/c1ccc(CNC(=O)c2ccc(S(F)(F)(F)(F)F)cc2)cc1 end up with in this test?
Result: active

Query: What classification did CC[C@@H](CO)Nc1ccc2ncc(C#Cc3cncc(C(=O)Nc4ccc(CN5CCN(C)CC5)c(C(F)(F)F)c4)c3)n2n1 end up with in this test?
Result: active

Query: What classification did Cc1ccc(-n2cc(/C=N/NC(=O)c3ccncc3)c(-c3ccc(S(C)(=O)=O)cc3)n2)cc1 end up with in this test?
Result: inactive

Query: What classification did C#CC(=O)N(c1ccc(OC)cc1OC)C(C(=O)NCC(=O)OCC)c1cccs1 (centres undefined) end up with in this test?
Result: inactive

Query: What classification did Cc1ccc(CSc2nc(-c3ccc(Cl)cc3)c(C#N)c(N3CCOCC3)n2)cc1 end up with in this test?
Result: inactive

Query: What classification did CC(C)(C)CC(C)(C)n1nnnc1C(Nc1nccs1)c1cc2cccc3ccc4cccc1c4c32 (centres undefined) end up with in this test?
Result: inactive

Query: What classification did O=C(Cn1cc[n+](CC(=O)c2ccc(-c3ccccc3)cc2)c1)Nc1cccc2cccnc12 end up with in this test?
Result: inactive

Query: What classification did CC/C(=C/c1c(O)cccc1OC)c1ccc2c(OC)cccc2[o+]1 end up with in this test?
Result: inactive

Where these numbers come from: PubChem BioAssay (NCI)
